pIC50: −log10 of the molar value.
// read-out pIC50, gathered for Coagulation factor X (Homo sapiens) from published studies

Worked cases, pIC50 given:
N=C(N)c1cccc(CNC(=O)Cc2c(F)ccc(NS(=O)(=O)Cc3ccccc3)c2F)c1; < 4.52
CC(C)Nc1ccc(/C=C/c2ccccc2)c(CC(=O)NCc2ccc(C(=N)N)cc2)[n+]1[O-]; < 4.00
COC(=O)NC(=N)c1cccc(CN(CC(C)C)C(=O)C(=O)Nc2ccc(-c3ccccc3S(C)(=O)=O)cc2)c1; 5.46

Turning now to a further record.
Exercise: System Coagulation factor X (Homo sapiens). Read-out pIC50. Item CC(C)Nc1ncc(-c2cc(N)cc(NC(=O)CCC3CCCC3)c2)n(CC(=O)NCc2ccc(C(=N)N)cc2)c1=O . Report value.
Key: < 4.52

###

pIC50: −log10 of the molar value.
# merged literature set: pIC50 with Coagulation factor X (Homo sapiens, UniProt P00742)

CC(=N)N1CCC(Oc2ccc3c(c2)CCN(C(Cc2ccc4ccc(C(=N)N)cc4c2)C(=O)OC(C)(C)C)C3=O)CC1 (centres unmarked); 6.59
CN1CCN(C(=O)CNC(=O)C(Nc2cccc(C(=N)N)c2)c2ccccc2O[C@@H]2O[C@H](CO)[C@@H](O)[C@H](O)[C@H]2O)CC1 (single isomer, unassigned); 8.00 to 10.00
CC[C@H](C)NC(=O)c1cc(N)cc(-c2cnc(NC)c(=O)n2CC(=O)NCc2ccc(C(=N)N)cc2)c1; < 4.52

Exercise: Quote pIC50 with test system Coagulation factor X (Homo sapiens, UniProt P00742) for N[C@H]1CC[C@H](CNC(=O)CN2CCCC[C@H](NS(=O)(=O)Cc3ccccc3)C2=O)CC1
Key: ≤ 5.60

Exercise: Lab note: Coagulation factor X (Homo sapiens, UniProt P00742) assay, enter pIC50 for CC(C)Nc1ncc(-c2cc(N)cc(C(=O)N[C@H](C(=O)O)c3ccccc3)c2)n(CC(=O)NCc2ccc(C(=N)N)cc2)c1=O here
Key: < 4.52

Exercise: Please tell me the measured pIC50 for CC(C)Nc1ncc(-c2cc(N)cc(C(=O)NCc3cc(C(F)(F)F)cc(C(F)(F)F)c3)c2)n(CC(=O)NCc2ccc(C(=N)N)cc2)c1=O ; system: Coagulation factor X (Homo sapiens, UniProt P00742).
Key: < 4.52

Exercise: Determine reported pIC50 for Nc1ccc(CNC(=O)Cn2c(-c3cccc(N)c3)c(Cl)nc(NC3CCC3)c2=O)cc1 ; test system: Coagulation factor X (Homo sapiens, UniProt P00742).
Key: < 4.52

Exercise: Name the value of pIC50 reported for O=C(NC[C@H]1CN(c2ccc(N3CCCCC3=O)cc2F)C(=O)O1)c1ccc(Cl)s1 when tested on Coagulation factor X (Homo sapiens, UniProt P00742).
Key: 8.66

Exercise: Tell me pIC50 of N=C(N)c1ccc(CNC(=O)CN2CCCC[C@H](NS(=O)(=O)c3ccc4c(c3)CCO4)C2=O)s1 when tested on Coagulation factor X (Homo sapiens, UniProt P00742).
Key: 5.60 to 6.52

Exercise: Output reported pIC50 of the compound CC(C)(NC(=O)c1ccc(Br)s1)C(=O)Nc1ccc(Br)cc1 on Coagulation factor X (Homo sapiens, UniProt P00742).
Key: < 5.00

Exercise: // fetch pIC50; item: CC[C@H](C)NC(=O)c1cc(N)cc(-c2cnc(NC(C)C)c(=O)n2CC(=O)NCc2c(OC)cc(C(=N)N)cc2OC)c1 ; system: Coagulation factor X (Homo sapiens, UniProt P00742)
Key: < 4.52

Exercise: Retrieve pIC50 on Coagulation factor X (Homo sapiens, UniProt P00742); query C#Cc1ccc(NC(=O)c2nccnc2C(=O)Nc2ccc(N3CCOCC3=O)cc2)cc1
Key: 8.20

Exercise: # return pIC50 for CCOC(=O)c1cc(N)cc(-c2cnc(NC(C)C)c(=O)n2CC(=O)NCc2ccc(C(=N)N)cc2)c1 , test system: Coagulation factor X (Homo sapiens, UniProt P00742)
Key: < 4.52

Exercise: Fill in pIC50 for CS(=O)(=O)c1ccccc1-c1ccc(NC(=O)[C@@H](Cc2ccccc2)NC(=O)Nc2ccc(Cl)cc2)cc1 tested with Coagulation factor X (Homo sapiens, UniProt P00742).
Key: 7.07

###

Compiled literature IC50, tested on Coagulation factor X (Homo sapiens).
MEASURED ATTRIBUTE: IC50 (nM)

NC(N)=NCCCC(N)C(=O)NCC(=O)NC(CCCN=C(N)N)C(=O)c1nccs1 (centres unmarked); 11

A: CC(=N)N1CCC(Oc2ccc(C(=O)NCc3cccc(C(=N)N)c3)cc2)CC1
B: CC(C)CC(Nc1cccc(C(=N)N)c1)C(=O)Nc1ccc(N(C)C)cc1 (centres unmarked)
Exercise: Please tell me which of the two, A or B , has the higher reported IC50 value. Answer by quoting the chosen item's label.
Key: B

a: CC(=N)N1CCC(Oc2ccc3c(c2)N(Cc2cccc(-c4cccc(C(=N)N)c4)c2)C(=O)CO3)CC1
b: CC(=N)N1CCC(Oc2ccc3c(ccc(=O)n3Cc3ccccc3-c3cccc(C(=N)N)c3)c2)CC1
Exercise: Which value of IC50 is numerically greater: that of a or that of b ? State your choice using its label.
Key: b

###

# IC50 against Coagulation factor X (Homo sapiens, UniProt P00742), merged from multiple literature sources
MEASURED ATTRIBUTE: IC50 (nM)

O=C1CN(S(=O)(=O)c2ccc3cc(Cl)ccc3c2)CC23CNC(=O)N2C2(CCN(c4cccnn4)CC2)CN13 (racemic); 4.1

I: CC(=N)N1CCC(Oc2ccc3c(c2)CCN(C(Cc2cccc(C(=N)N)c2)C(=O)OC(C)(C)C)C3=O)CC1 (centres unmarked)
II: COCC12CN(S(=O)(=O)c3ccc4cc(Cl)ccc4c3)CC(=O)N1CC1(CCN(c3ccncc3)CC1)O2 (centres unmarked)
III: N=C(N)c1cccc(CN(C(=O)Cc2ccc(-c3ccccc3S(N)(=O)=O)cc2)c2ccccc2)c1
IV: O=C(NCc1cn(-c2ccc(N3CCOCC3=O)cc2)nc1-c1ccccc1)c1ccc(Cl)s1
Exercise: # ascending order, key=IC50 # answer = labels listed in requested order
Key: IV, II, I, III
(IV: 0.7 nM, II: 3.2 nM, I: 22.1 nM, III: 2000 nM)

###

pIC50: −log10 of the molar value.
Values of pIC50 for Coagulation factor X (Homo sapiens), collected from a number of published sources:
MEASURED ATTRIBUTE: pIC50

Below: 2 compounds and their reported pIC50.
CN(C(=O)CN1CCOCC1)c1ccc(NC(=O)[C@H]2C[C@@H](O)CN2C(=O)Nc2ccc(Cl)cc2)cc1; 7.27
CCCC(CCC)C(=O)N[C@@H](CC(=O)O)C(=O)N1CCC[C@H]1C(=O)N[C@H](C=O)CCCNC(=N)N; 6.62

1: C#Cc1ccc(NC(=O)N[C@H](CC(C)C)C(=O)Nc2ccc(N3CCOCC3=O)cc2)cc1
2: CS(=O)(=O)c1ccccc1-c1ccc(NC(=O)C(Cc2cnc[nH]2)NC(=O)Nc2ccccc2)cc1 (centres unmarked)
3: Cc1cc(NC(=O)Cc2ccc3[nH]c(-c4ccc(Cl)s4)nc3c2)ccc1N1CCOCC1=O
4: O=C(Cc1ccc2[nH]c(-c3ccc(Cl)s3)nc2c1)Nc1ccc(N2CCOCC2=O)cc1
Exercise: // ranking: key=pIC50, reverse=True Arrange the labels as the request states and list them.
Key: 1, 3, 4, 2

###

Literature roundup of Coagulation factor X (Homo sapiens, UniProt P00742) data, read-out IC50.
MEASURED ATTRIBUTE: IC50 (nM)

CC(=N)N1CCC(Oc2ccc3c(ccc(=O)n3Cc3cccc(-c4cccc(C(=N)N)c4)c3)c2)CC1; 11.8

I: CCOC(=O)NCC12CN(S(=O)(=O)c3ccc4cc(Cl)ccc4c3)CC(=O)N1CC1(CCN(c3ccncc3)CC1)O2 (stereo not shown)
II: CC(C)=C1C(=O)N(Cc2ccc3ccc(C(=N)N)cc3c2)c2ccc(OC3CCN(C(=N)N)CC3)cc21
III: CC(C)CN(Cc1cccc(C(=N)N)c1)C(=O)C(=O)Nc1ccc(-c2ccc(C(=N)N)cc2)cc1
Exercise: Ascending by IC50, please: list the compounds accordingly. Answer format: the labels, in the requested order.
Key: I, II, III

###

pIC50: −log10 of the molar value.
Record set: pIC50 | Coagulation factor X (Homo sapiens, UniProt P00742) | literature, multiple sources.
MEASURED ATTRIBUTE: pIC50

O=C(NCC(O)c1cccc(O)c1)c1cccc(NS(=O)(=O)c2ccc3ccccc3c2)c1 (stereo not shown); 4.94

A: Cc1ncc(CO)c(CNc2cccc(-c3ccccc3S(N)(=O)=O)c2)c1OCc1ccc(C(=N)N)cc1
B: CS(=O)(=O)c1ccccc1-c1ccc(NC(=O)N(NC(=O)Nc2ccc(Cl)cc2)c2ccccc2)cc1
C: N=C(N)c1ccc(O[C@@H]2CO[C@H]3[C@@H]2OC[C@@H]3Oc2cccc(C(=N)N)c2)cc1
D: CCC[C@H](NC(=O)Nc1ccccn1)C(=O)Nc1ccc(-c2ccccc2S(C)(=O)=O)cc1
Exercise: I would appreciate it if you could sort these 4 compounds by pIC50, starting from the smallest number. When ranking, write the labels in the order the request describes.
Key: A, D, B, C
